Assay: Toxicity against Artemia salina assessed as mortality at 12 ug/ml
Format: organism-based
Settings: in vivo, read-out: Activity
Value type: mortality at 12 ug/ml (%)
One number for each entry, in %.

Return mortality at 12 ug/ml (reported value) for this compound: C[C@]1(Cl)C[C@](C)(/C=C/Cl)[C@H](Br)C[C@@H]1Cl 26

---

Experiment: Toxicity against Artemia salina assessed as mortality at 10 ug/ml
Format: organism-based
Settings: in vivo, read-out: Activity
Value type: mortality at 10 ug/ml

Return mortality at 10 ug/ml (reported value) for this molecule: C[C@]1(Cl)C[C@](C)(Br)[C@@H](/C=C/Cl)C[C@H]1Br 20%
